The molecules listed here are annotated with their No. of contralateral turns (X) in turning rats.
System: 6-OHDA lesioned rats
Assay: Contralateral turning behavior in 6-OHDA lesioned rats
Type: in vivo, Male (ICR) Wistar rats
Conditions: 1.0 mg/kg s.c.; scored for six hours
// return a plain number; no unit text

Before answering, review these 3 worked examples.
CN1C(=O)CN(C[C@@H]2C[C@@H]3c4cccc5[nH]cc(c45)C[C@H]3N(C)C2)CC1=O : 1829.2
CN1C[C@H](CN2CC(=O)NC(=O)C2)C=C2c3cccc4[nH]cc(c34)C[C@H]21 : 2146
CN1C[C@H](CN2CC(=O)NC(=O)C2)C[C@@H]2c3cccc4c3c(cn4C)C[C@H]21 : 710.5

Now consider a different molecule.
## Input Find the measured No. of contralateral turns (X) in turning rats: item CC(C)C[C@H]1C(=O)N2CCC[C@H]2[C@]2(O)O[C@](NC(=O)[C@@H]3C=C4c5cccc6[nH]c(Br)c(c56)C[C@H]4N(C)C3)(C(C)C)C(=O)N12 [Bromocriptine, reference compound] , target or system 6-OHDA lesioned rats.
## Output 1922.3
